Numbers sourced from patent US10961200B2.

Consider the following compounds and their measured IC50 readings.
# system_name: Human LDHA (Homo sapiens (Human), UniProt P00338)
# test_description: human LDHA primary biochemical assay (resazurin/diaphorase coupled, fluorescence)
# cond: LDHA inhibitory activity, activity level based on IC50 (Table 7)
property_label: IC50

1. COCC#Cc1cc(-c2nn(-c3nc(C(=O)O)cs3)c(CC3CC3)c2Cc2ccc([S+](N)(=O)[O-])c(F)c2)ccc1F = < 100 nM
2. NS(=O)(=O)c1ccc(Cc2c(-c3ccc(F)c(C#Cc4cccs4)c3)nn(-c3nc(C(=O)O)cs3)c2CC2CC2)cc1F = < 100 nM
3. CC#Cc1cc(-c2nn(-c3nc(C(=O)OCC)cs3)c(CC3CC3)c2Cc2ccc(S(N)(=O)=O)c(F)c2)ccc1F = 1000 to 57000 nM
4. NS(=O)(=O)c1ccc(Cc2c(-c3ccc(F)c(C#CC4(O)CCCC4)c3)nn(-c3nc(C(=O)O)cs3)c2CC2CC2)cc1F = < 100 nM
5. COc1cccc(-c2cc(-c3nn(-c4nc(C(=O)O)cs4)cc3Cc3ccc(S(N)(=O)=O)cc3)ccc2F)c1 = < 100 nM
6. Cc1ccc(-c2nn(-c3nc(C(=O)O)cs3)cc2Cc2ccc(S(N)(=O)=O)cc2)cc1-c1cc(F)cc(F)c1 = 100 to 1000 nM
7. N[S+](=O)([O-])c1ccc(Cc2c(-c3ccc(F)c(C#CC4CCCC4)c3)nn(-c3nc(C(=O)O)cs3)c2CC2CC2)cc1 = < 100 nM
8. CCCCC#Cc1cc(-c2nn(-c3nc(C(=O)O)cs3)c(CC3CC3)c2Cc2ccc(S(N)(=O)=O)c(F)c2)ccc1F = < 100 nM
9. NS(=O)(=O)c1ccc(Cc2c(-c3ccc(F)c(-c4ccc(F)cc4)c3)nn(-c3nc(C(=O)O)cs3)c2C2CC2)cc1 = < 100 nM
10. Cc1ccc(-c2cc(-c3nn(-c4nc(C(=O)O)cs4)cc3Cc3ccc(S(N)(=O)=O)cc3)ccc2F)cc1F = 100 to 1000 nM
11. NS(=O)(=O)c1ccc(Cc2c(C3CC3)nn(-c3nc(C(=O)O)cs3)c2-c2cccc(-c3ccc(F)cc3)c2)c(F)c1 = 1000 to 57000 nM
12. NS(=O)(=O)c1ccc(Cc2c(-c3ccc(F)c(C#CC4(F)COC4)c3)nn(-c3nc(C(=O)O)cs3)c2CC2CC2)cc1F = < 100 nM
13. Cc1ccc(-c2nn(-c3nc(C(=O)O)cs3)cc2Cc2ccc(S(N)(=O)=O)cc2)cc1-c1cccc(F)c1 = 100 to 1000 nM
14. NS(=O)(=O)c1ccc(Cc2c(-c3cccc(N4CCC(F)(F)CC4)c3)nn(-c3nc(C(=O)O)cs3)c2CC2CC2)cc1F = < 100 nM
15. CCOC(=O)c1csc(-n2nc(-c3ccc(F)c(-c4cccc(F)c4)c3)c(Cc3ccc([S+](N)(=O)[O-])c(F)c3)c2CC2CC2)n1 = > 57000 nM
16. NS(=O)(=O)c1ccc(Cc2c(-c3cccc(-c4cccc(F)c4)c3)nn(-c3nc(C(=O)O)cs3)c2C2CC2)c(F)c1 = < 100 nM
17. NS(=O)(=O)c1ccc(Cc2c(-c3ccc(F)c(OCc4ccc(C(F)(F)F)o4)c3)nn(-c3nc(C(=O)O)cs3)c2CC2CC2)cc1F = < 100 nM
18. COc1ccc(-c2cc(O)n(-c3nc(C(=O)O)cs3)n2)cc1 = > 57000 nM
19. NS(=O)(=O)c1ccc(Cc2c(-c3ccc(F)c(C#CC4CCOC4)c3)nn(-c3nc(C(=O)O)cs3)c2CC2CC2)cc1F (centres unmarked) = < 100 nM
20. N[S+](=O)([O-])c1ccc(Cc2c(C3CC3)nn(-c3nc(C(=O)O)cs3)c2-c2cccc(-c3cccc(F)c3)c2)cc1F = 1000 to 57000 nM
21. N[S+](=O)([O-])c1cccc(Cc2c(-c3ccc(F)c(C#CC4CCCC4)c3)nn(-c3nc(C(=O)O)cs3)c2CC2CC2)c1 = 100 to 1000 nM
22. N[S+](=O)([O-])c1ccc(Cc2c(-c3ccc(F)c(C#CC4CC4)c3)nn(-c3nc(C(=O)O)cs3)c2CC2CC2)cc1 = < 100 nM
23. NS(=O)(=O)c1ccc(Cc2c(-c3cccc(Oc4ccccc4)c3)nn(-c3nc(C(=O)O)cs3)c2CC2CC2)cc1 = < 100 nM
24. NS(=O)(=O)c1ccc(Cc2c(-c3ccc(F)c(/C=C/C4CC4)c3)nn(-c3nc(C(=O)O)cs3)c2CC2CC2)cc1F = < 100 nM
25. NS(=O)(=O)c1ccc(Cc2cnn(-c3nc(C(=O)O)cs3)c2-c2ccc3ccccc3c2)cc1 = < 100 nM
26. Cc1cccc(-c2cccc(-c3nn(-c4nc(C(=O)O)cs4)cc3Cc3ccc(S(N)(=O)=O)cc3)c2)c1 = < 100 nM
